Would you kindly list FACS-Seq fitted mean (log10) for each of these variants?
B1: library; a variant is named by its letters at N, in order (parent)
chain: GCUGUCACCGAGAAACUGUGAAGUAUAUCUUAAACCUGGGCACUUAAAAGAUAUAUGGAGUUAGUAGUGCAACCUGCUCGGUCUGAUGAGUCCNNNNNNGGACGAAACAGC

- Variants of: B1
- METHOD SUMMARY: FACS-Seq fitted mean relative fluorescence mCherry/BFP without ligand (log10 relative fluorescence); HEK293T; ligand: cyclic di-GMP (c-di-GMP-II aptamer); higher = higher reporter protein expression
- TEST PARAMETERS: ligand present: no
Numbers only.

Consider the worked cases shown below.
{"ALTERATION": "CCAAGA", "FACS-Seq fitted mean (log10)": -0.572}
{"ALTERATION": "CGGUCC", "FACS-Seq fitted mean (log10)": -0.137}

Fill in FACS-Seq fitted mean (log10) for each of the 2 variants listed.
1. CGAUGC
2. GCAAAU

1. -0.127
2. -0.773

Please report FACS-Seq fitted mean (log10) for every entry that follows.
1. UAAAUG
2. GCAUAC
3. CGUCCU
4. AGAAAC

1. 0.102
2. -0.0759
3. -0.313
4. 0.0659

Consider the following items and state reported FACS-Seq fitted mean (log10) for each.
1. GCGCGA
2. CACAUA
3. CGCCUA

1. -0.455
2. -0.521
3. -0.608

Parameter requested: FACS-Seq fitted mean (log10). Apply to each item below.
1. GAUGGA
2. UUACUA
3. GCACAU
4. CGGGUC

1. -0.376
2. -0.111
3. -0.28
4. -0.589

Batch request: FACS-Seq fitted mean (log10) per item, same order as input.
1. CGGACA
2. UCCUCC
3. GCAGAG
4. UGGAAC
5. AAAUAA
6. AAGCCA
7. GUUCCA

[-0.421, -0.766, -0.424, -0.221, -0.515, -0.228, -0.877]

Batch request: FACS-Seq fitted mean (log10) for each of the following variants.
1. GUGGAA
2. CUCGAA
3. AGGAUA
4. GAACUA
5. UAGUUG
6. GUGAGA
7. AUAAUU

1. -0.382
2. -0.00262
3. -0.597
4. -0.288
5. 0.116
6. -0.476
7. -0.558

Could I get FACS-Seq fitted mean (log10) for every one of these entries?
1. ACGAAG
2. AGCUGC
3. CAUCCA
4. CCAAUA
5. CAUGAA
6. UUACCA
7. GCUGGA
8. ACAAGU

1. -0.359
2. -0.105
3. -0.794
4. -0.544
5. -0.704
6. -0.0643
7. -0.599
8. -0.519

Provide each entry's FACS-Seq fitted mean (log10) from the list below.
1. AUUGAA
2. CAGCAA
3. CAAAUA
4. UAGUUU

1: -0.159; 2: -0.468; 3: -0.296; 4: -0.234
